Every entry's value here was drawn from paper PMC6269682.

target: human serum albumin (HSA) (Homo sapiens, UniProt P02768); assay: intrinsic fluorescence quenching (Stern-Volmer, apparent Ka), with displacement of fluorescent site probes
Sequence (P02768 25-609): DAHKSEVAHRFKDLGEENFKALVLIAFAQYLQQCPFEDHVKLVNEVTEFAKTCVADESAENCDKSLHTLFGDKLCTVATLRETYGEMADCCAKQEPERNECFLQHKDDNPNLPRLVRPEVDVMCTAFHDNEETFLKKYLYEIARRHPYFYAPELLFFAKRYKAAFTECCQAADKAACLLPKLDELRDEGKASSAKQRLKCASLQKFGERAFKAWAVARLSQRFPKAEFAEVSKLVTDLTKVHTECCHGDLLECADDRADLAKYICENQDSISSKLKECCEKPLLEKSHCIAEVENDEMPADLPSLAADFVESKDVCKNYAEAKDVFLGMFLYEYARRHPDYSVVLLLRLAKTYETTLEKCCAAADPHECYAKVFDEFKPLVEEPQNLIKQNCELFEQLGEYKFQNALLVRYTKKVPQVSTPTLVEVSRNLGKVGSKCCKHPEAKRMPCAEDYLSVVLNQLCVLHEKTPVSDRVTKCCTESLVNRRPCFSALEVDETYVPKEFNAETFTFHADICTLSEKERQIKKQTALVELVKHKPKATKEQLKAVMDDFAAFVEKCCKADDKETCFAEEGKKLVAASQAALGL
test-readout: Kd (µM)
Numbers only, in µM.

// sample COc1cc(C(C)=O)ccc1O [APO, 4-hydroxy-3-methoxyacetophenone] , its Kd was 45.7
